Consider the following sequences; for each one, report its apparent KD of MS2 coat protein.
# Test system: MS2 coat protein
# TEST METHOD NOTES: apparent KD of MS2 coat protein; designed switch direction (-1 OFF switch, 1 ON switch): 1; higher = weaker reporter binding
# DETAILS: Eterna round: R95; input ligand: none
Write the number in nM without appending the unit.

Value of measured apparent KD of MS2 coat protein for the entry GGUCCAGCCUGAGCUGGACAAAAGUAUGUACAUGAGGAUCACCCAUGUCAUGUACAAGCUUUUUGCUCGUCUUAAAA [JL mod - D87 - 9] (puzzle: Sensor for hsa-mir-208a) : 486

Value of measured apparent KD of MS2 coat protein for the entry UAUAAACAUGAGGAUCACCCAUGUAAUAAUAUGGGAGGAUAUCAGAAUUUAUUUAUUUAAUGAGAAGGCCUAAUAU [Mat - Same State 1 - Mod of Eli - D67] (puzzle: Same State 1) : 562

Value of measured apparent KD of MS2 coat protein for the entry AGUCCAGCCUGAGCUGGACAAAAGCAUGUACAUGAGGAUCACCCAUGUCAUGUACAAGCUUUUUGCUCGUCAAAAUA [Mat - hsa-mir-208a - Mod of JL - D29] (puzzle: Sensor for hsa-mir-208a) : 480

Value of measured apparent KD of MS2 coat protein for the entry AGUGCAGCCUGAGCUGCACAAAAGCAUGUACAUGAGGAUCACCCAUGUCAUGUACAAGCUUUUUGCUCGUCUUAAAA [Mat - hsa-mir-208a - Mod of JL - D20] (puzzle: Sensor for hsa-mir-208a) : 688

Value of measured apparent KD of MS2 coat protein for the entry AAGAACAAGCGAAAGGCCCGUCUUAUAUAACAUGAGGAUCACCCAUGUAAGGUGAAAGUUAGAGAGUGGAGGUUGAA [JR_SHM208A_Sub047] (puzzle: Sensor for hsa-mir-208a) : 340

Value of measured apparent KD of MS2 coat protein for the entry AUAAGGCAAGCUUUUUUCUCGUUGUGUAAACAUGAGGAUCACCCAUGUGCUCGCCCUGGAUCUUUGGAUCGCAGAAA [Rarisooron] (puzzle: Sensor for hsa-mir-208a) : 119

Value of measured apparent KD of MS2 coat protein for the entry AUAAAACAUGAGGAUCACCCAUGUCUACAAAGUCGAGGAUAUGGGCAAAUAAAAUAAGAACCAGAAGGCGAAUAAU [salish99_ss1_r3_044] (puzzle: Same State 1) : 275

Value of measured apparent KD of MS2 coat protein for the entry CGUCGCUGUCGAGAGGAUAUGCGGUGAUGGACAUGAGGAUCACCCAUGUUAGCGAUAGCAUCACGGUAGAAGGCUCUUACGACUG [Soteed Omei mod 24] (puzzle: Same State 2) : 26.8

Value of measured apparent KD of MS2 coat protein for the entry UUUAGUUGCGGGCAGGAUAUGUAUUAAAGUACAUGAGGAUCACCCAUGUGCGGGUAUAACACCCGACAGAAGGGCCAAUCGCGAC [Laonerce - 1] (puzzle: Same State 2) : 115

Value of measured apparent KD of MS2 coat protein for the entry AGCUAUCGAAAACGAUAGCAAAAGCAUGUACAUGAGGAUCACCCAUGUCAUGUACAAGUUUUUUGCUCGUCUUAAAA [Zipper 23 - 13] (puzzle: Sensor for hsa-mir-208a) : 121
